// data source = patent US20260151494A1

target: T1, human CD71 extracellular domain (CD71-ECD) (human, UniProt P02786 89-760); assay: primary ELISA, RLU ratio to HSA
T1 construct: also called hCD71; human CD71-ECD
T1 sequence (P02786 89-760): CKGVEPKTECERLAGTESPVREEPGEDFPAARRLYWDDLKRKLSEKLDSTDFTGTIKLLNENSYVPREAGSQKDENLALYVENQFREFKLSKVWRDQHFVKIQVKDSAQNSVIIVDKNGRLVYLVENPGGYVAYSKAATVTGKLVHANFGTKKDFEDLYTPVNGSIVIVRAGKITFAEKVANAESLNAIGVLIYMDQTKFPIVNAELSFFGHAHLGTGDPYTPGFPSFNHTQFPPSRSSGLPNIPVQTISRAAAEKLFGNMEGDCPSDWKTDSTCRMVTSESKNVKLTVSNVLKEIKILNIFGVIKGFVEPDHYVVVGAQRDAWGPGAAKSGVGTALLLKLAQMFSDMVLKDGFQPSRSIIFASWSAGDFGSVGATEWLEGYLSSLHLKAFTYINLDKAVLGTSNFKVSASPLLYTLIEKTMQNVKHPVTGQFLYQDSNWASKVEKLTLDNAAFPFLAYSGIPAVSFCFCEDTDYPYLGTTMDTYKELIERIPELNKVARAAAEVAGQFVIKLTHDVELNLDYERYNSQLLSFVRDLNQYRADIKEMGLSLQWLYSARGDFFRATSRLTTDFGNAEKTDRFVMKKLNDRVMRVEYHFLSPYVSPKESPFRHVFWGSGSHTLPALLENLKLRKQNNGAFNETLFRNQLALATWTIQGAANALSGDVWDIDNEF
Note to self: class = bucket of hCD71:HSA, per band 1 (below 100), band 2 (100 to below 300), band 3 (300 or more)

// known answers, use as guide
CD71-binding FN3 domain SEQ ID NO: 330 (designed binder) MSLPAPKNLVVSRVTEDSARLSWTAPDAAFDSFEIGYFENLYLGEAIVLTVPGSERSYDLTGLKPGTEYWVQIGGVKGGNWSAPLSAIVTT :: band 1
CD71-binding FN3 domain SEQ ID NO: 270 (designed binder) MSLPAPKNLVVSRVTEDSARLSWTAPDAAFDSFFIGYLEPQPPGEAIHLYVPGSERSYDLTGLKPGTEYNVTIQGVKGGFPSEPLIANSTT :: band 1
CD71-binding FN3 domain SEQ ID NO: 271 (designed binder) MSLPAPKNLVVSRITEDSARLSWTAPDAAFDSFEIGYWENAYKGEAIVLTVPGSERSYDLTGLKPGTEYVVFIGGVKGGVWSVPLSAIFTT :: band 2
CD71-binding FN3 domain SEQ ID NO: 313 (designed binder) MSLPAPKNLVVSRVTEDSARLSWTAPDAAFDSFEIAYFENDWAGEAIVLTIPGSERSYDLTGLKPGTEYWVQIGGVKGGNWSAPLSAIFTT :: band 3

# bin lookup: classify CD71-binding FN3 domain SEQ ID NO: 319 (designed binder) MSLPAPKNLVVSRVTEDSARLSWTAPGAAFDSFEIGYFENLYLGEAIVLTVPGSERSYDLTGLKPGTEYWVQIGGVKGGVWSVPLSAIFTT by its hCD71:HSA band 2

Here is the next binder: CD71-binding FN3 domain SEQ ID NO: 333 (designed binder) MSLPAPENLVVSRVTEDSARLSWTAPDAAFDSFFIGYLEPQPPGEAIALYVPGSERSYDLTGLKPGTEYNVTIQGVKGGFPSLPLVATFTT band 2

Could you do the same for CD71-binding FN3 domain SEQ ID NO: 279 (designed binder) MSLPAPKNLVVSRVTEDSARLSWTAPDAAFDSFFIGYLEPQPPGEAIHLYVPGSERSYDLTGLKPGTEYNVTIQGVKGGNWSAPLSAIFTT , please? band 3

What about this binder? CD71-binding FN3 domain SEQ ID NO: 310 (designed binder) MSLPAPKNLVVSRVTEDSARLSWTAPDAAFDSFEIDYGEYSQAGEAIGLLVPGSERSYDLTGLKPGTEYAVWIGGVKGGFFSTPLEADFTT band 1

Then CD71-binding FN3 domain SEQ ID NO: 272 (designed binder) MSLPAPKNLVVSRVTEDSARLSWTAPDAAFDSFEIAYGEAAYDGEAIALLVPGSERSYDLTGLKPGTEYWVQIGGVKGGNWSAPLSAIFTT ? band 2

Input CD71-binding FN3 domain SEQ ID NO: 309 (designed binder) MSLPAPENLVVSRVTEDSARLSWTAPDAAFDSFEIGYFENLYLGEAIVLTVPGSERSYDLTGLKPGTEYWVQIGGVKGGNWSAPLSAIFTT band 2

Item: CD71-binding FN3 domain SEQ ID NO: 285 (designed binder) MSLPAPKNLVVSRVTEDSARLSWTATDAAFDSFEIGYWENAYKGEAIVLTVPGSERSYDLTGLKPGTEYVVFIGGVKGGVWSVPLSAIFTT band 2

Same lookup for CD71-binding FN3 domain SEQ ID NO: 253 (designed binder) MSLPAPKNLVVSRVTEDSARLSWTAPDAAFDSFDINYWENESGGEAIALFVPGSERSYDLTGLKPGTEYWVSIGGVKGGRFSEPLYARFTT , please. band 3

Same thing, different binder: CD71-binding FN3 domain SEQ ID NO: 323 (designed binder) MSLPAPKNLVVSRVTEDSARLSWTAPDAAFDSFEIGYFENLYLGEAIVLTVPGSERSYDLTGLKPGTEYWVQIGGVKGGNWSGPLSAIFTT band 1

CD71-binding FN3 domain SEQ ID NO: 247 (designed binder) MSLPAPKNLVVSRVTEDSARLSWTAPDAAFDSFEIGYFENLYLGEAIVLTVPGSERSYDLTGLKPGTEYWVQIGGVKGGEWSAPLSAIFTT , same question. band 3

Here is the next binder: CD71-binding FN3 domain SEQ ID NO: 240 (designed binder) MSLPAPKNLVVSRVTEDSARLSWTAPDAAFDSFHIWYFEKANEGEAIPLVVPGSERSYDLTGLKPGTEYDVDIGGVKGGAWSIPLGARFTT band 1

What do you get for CD71-binding FN3 domain SEQ ID NO: 268 (designed binder) MSLPAPKNLVVSRVTEDSARLSWTAPDAAFDSFEIGYFENLYLGEAIVLTVPGSERSYDPTGLKPGTEYWVQIGGVKGGNWSAPLSAIFTT ? band 2

Quick one: CD71-binding FN3 domain SEQ ID NO: 261 (designed binder) MSLPAPKNLVVSRVTEDSARLSWTAPDAAFDSFYIAYAEPRPDGEAILLWVPGSERSYDLTGLKPGTEYSVLIHGVKGGLLSSPLHAYFTT band 3

Follow-up entry: CD71-binding FN3 domain SEQ ID NO: 290 (designed binder) MSLPAPKNLVVSRVTEDSARLSWTAPDAAFDSFFIGYLEPQPPGEAIHLYVPGSERSYDLTGLKPGTEYNVTIQGVKGGFPSEPLVATFTT band 2
